Data provenance is patent US4172118A.

# Assay: Acute toxicity of hexachlorophene with/without diphenylamine in mice (death rate)
# Type: in vivo, mice (male)
# Condition set: mouse, in vivo; hexachlorophene 150 mg/kg oral, 7 days; combination: diphenylamine 1.5 mg/kg oral one-half hour prior

Smiles repr: Oc1c(Cl)cc(Cl)c(Cl)c1Cc1c(O)c(Cl)cc(Cl)c1Cl
Unit spec: %
mortality at 168 h: 20

###

# Assay: Acute toxicity of bithionol sulfoxide with/without diphenylamine in mice (death rate)
# Type: in vivo, mice (male)
# Condition set: mouse, in vivo; bithionol sulfoxide 600 mg/kg oral, 7 days; Group II with diphenylamine 30 mg/kg
Value type: mortality at 168 h

Molecule: [O-][S+](c1cc(Cl)cc(Cl)c1O)c1cc(Cl)cc(Cl)c1O [bithionol sulfoxide]
Value type: mortality at 168 h
Reported result: 10%

###

# Assay: Acute toxicity of hexachlorophene with/without diphenylamine in mice (death rate)
# Type: in vivo, mice (male)
# Condition set: mouse, in vivo; hexachlorophene 128.2 mg/kg oral, 7 days; combination: diphenylamine 1.5 mg/kg oral one-half hour prior

Molecule: Oc1c(Cl)cc(Cl)c(Cl)c1Cc1c(O)c(Cl)cc(Cl)c1Cl [hexachlorophene]
Unit spec: %
mortality at 168 h: 20

###

# Assay: Acute toxicity of bithionol sulfoxide with/without diphenylamine in mice (death rate)
# Assay type: in vivo, mice (male)
# Condition set: mouse, in vivo; bithionol sulfoxide 800 mg/kg oral, 7 days; Group II with diphenylamine 40 mg/kg
Value type: mortality at 168 h (%)

Compound: [O-][S+](c1cc(Cl)cc(Cl)c1O)c1cc(Cl)cc(Cl)c1O [bithionol sulfoxide]
Reported result: 20

###

# Assay: Acute toxicity of hexachlorophene with/without diphenylamine in mice (death rate)
# Type: in vivo, mice (male)
# Condition set: mouse, in vivo; hexachlorophene 109.6 mg/kg oral, 7 days; combination: diphenylamine 1.5 mg/kg oral one-half hour prior
# Protocol: Acute toxicity tests were conducted in mice. The death rate noted in mice administered hexachlorophene alone was compared with that noted in mice which were administered the same dosages of hexachlorophene, but which had previously been protected by administration of diphenylamine. Ten groups of 10 male mice each were used in such experiments. Five reference groups were given hexachlorophene alone, at increasing dosages. […]
Value type: mortality at 168 h (%)

Smiles repr: Oc1c(Cl)cc(Cl)c(Cl)c1Cc1c(O)c(Cl)cc(Cl)c1Cl
Unit spec: %
Reported result: 10

###

# Assay: Acute toxicity of bithionol sulfoxide with/without diphenylamine in mice (death rate)
# Format: in vivo, mice (male)
# Condition set: mouse, in vivo; bithionol sulfoxide 1066 mg/kg oral, 7 days; Group II with diphenylamine 53 mg/kg

Compound: [O-][S+](c1cc(Cl)cc(Cl)c1O)c1cc(Cl)cc(Cl)c1O [bithionol sulfoxide]
mortality at 168 h (%): 40
